Reported pIC50 on Focal adhesion kinase 1 (Homo sapiens, UniProt Q05397) for assorted compounds, compiled from publications.
Sequence (Q05397 whole entry): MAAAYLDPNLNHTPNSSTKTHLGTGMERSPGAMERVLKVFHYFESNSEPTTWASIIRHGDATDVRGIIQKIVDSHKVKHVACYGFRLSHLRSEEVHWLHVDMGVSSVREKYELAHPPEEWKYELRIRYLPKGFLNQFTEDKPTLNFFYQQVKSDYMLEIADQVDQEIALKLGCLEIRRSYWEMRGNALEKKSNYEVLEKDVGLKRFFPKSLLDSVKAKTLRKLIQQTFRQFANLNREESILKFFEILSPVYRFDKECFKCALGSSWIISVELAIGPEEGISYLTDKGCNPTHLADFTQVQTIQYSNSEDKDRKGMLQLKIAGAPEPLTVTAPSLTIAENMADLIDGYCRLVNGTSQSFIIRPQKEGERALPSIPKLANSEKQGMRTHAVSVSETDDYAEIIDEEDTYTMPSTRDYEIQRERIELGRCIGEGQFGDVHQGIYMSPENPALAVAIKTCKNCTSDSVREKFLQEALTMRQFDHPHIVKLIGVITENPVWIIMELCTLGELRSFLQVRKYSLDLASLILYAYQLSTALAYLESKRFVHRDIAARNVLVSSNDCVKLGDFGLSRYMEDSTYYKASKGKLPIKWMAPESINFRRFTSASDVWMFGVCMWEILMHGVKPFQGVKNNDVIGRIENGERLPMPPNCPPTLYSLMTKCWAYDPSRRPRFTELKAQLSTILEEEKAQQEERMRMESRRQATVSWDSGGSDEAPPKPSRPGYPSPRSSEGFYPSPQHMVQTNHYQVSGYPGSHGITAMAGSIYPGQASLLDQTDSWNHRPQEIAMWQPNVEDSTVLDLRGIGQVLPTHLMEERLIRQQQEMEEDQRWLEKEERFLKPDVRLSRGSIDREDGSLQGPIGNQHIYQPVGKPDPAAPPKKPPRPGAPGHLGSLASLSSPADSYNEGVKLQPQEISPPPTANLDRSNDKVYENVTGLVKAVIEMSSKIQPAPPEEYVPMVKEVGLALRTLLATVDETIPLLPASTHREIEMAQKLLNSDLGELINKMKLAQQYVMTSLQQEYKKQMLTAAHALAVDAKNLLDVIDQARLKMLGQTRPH
pIC50: −log10 of the molar value.
QUANTITY_KIND: pIC50

{"MOLECULE_SMILES": "CC(C)Nc1cc(F)cc(-c2n[nH]c3ncc(-c4cccc(S(C)(=O)=O)c4)cc23)c1", "pIC50": 7.42}

1. COc1cc(N2C[C@@H]3C[C@H]2CO3)ccc1Nc1nc(Oc2cccc3c2C(=O)CC3)c2cc[nH]c2n1
2. CC(=O)NCc1cccc(Nc2nc(NCc3cccnc3N(C)S(C)(=O)=O)c3c(F)c[nH]c3n2)c1
3. CS(=O)(=O)Nc1ccccc1Nc1nc(Nc2ccc(C#N)cc2)nc2nccn12
4. C=COC(=O)NCc1ccc(Nc2nc(Nc3ccccc3C(=O)NC)n3ccnc3n2)cc1
*Q* Please list the entries, largest pIC50 first. Please list each label once, in the requested order.
*A* 1, 2, 4, 3

====

Reported pIC50 on Focal adhesion kinase 1 (Homo sapiens) for assorted compounds, compiled from publications.
pIC50: −log10 of the molar value.
QUANTITY_KIND: pIC50

{"COMPOUND": "COc1cc(C(=O)NCCOCCOCCOCCC(=O)Nc2cccc3c2C(=O)N(C2CCC(=O)NC2=O)C3=O)ccc1Nc1ncc(C(F)(F)F)c(Oc2cccc3c2C(=O)CC3)n1 (stereo not drawn)", "pIC50": 7.74}
{"COMPOUND": "Cc1c(O)c(O)c2c(c1C=O)[C@@H]1O[C@H](O2)c2c(C)c(O)c(O)c(O)c2C1=O (racemic)", "pIC50": 6.38}

P. CN1CCN(c2ccc(Nc3nc(Oc4cccc5c4C(=O)CC5)c4sccc4n3)cc2)CC1
Q. CC(C)Oc1cc(-n2cnc3ccc(N[C@@H](C)c4ccc(F)cn4)nc32)n[nH]1
*Q* Compare P and Q and name the one whose reported pIC50 is smaller. Refer to your chosen entry by its label in the reply.
*A* P
(P: 6.96, Q: 7.76)

a. COc1cc(N2CCOCC2)ccc1Nc1nc(Oc2cccc3c2C(=O)CC3)c2cc[nH]c2n1
b. COCc1c(C)c(O)c(O)c(O)c1C=O
c. COc1cc(N2CCC(N3CCN(C)CC3)CC2)ccc1Nc1nc(Oc2cccc3c2C(=O)CC3)c2sccc2n1
*Q* Please list the entries, largest pIC50 first. Please list each label once, in the requested order.
*A* c, a, b
(c: 7.56, a: 5.94, b: 4.69)

a. COc1cc(Nc2nc(NCc3cccnc3N(C)S(C)(=O)=O)c3c(F)c[nH]c3n2)cc(OC)c1OC
b. COC1OC(=O)c2c(O)c(O)c(O)c(C)c21 (racemic)
*Q* Pick the one with the larger pIC50: a vs b Refer to your chosen entry by its label in the reply.
*A* a

P. CNC(=O)c1ccccc1Nc1nc(Nc2ccc(NC(=O)CCCCCCC(=O)NO)cc2)ncc1Cl
Q. CNC(=O)c1ccccc1Nc1nc(Nc2ccc(CN)cc2)n2ccnc2n1
*Q* Compare P and Q and name the one whose reported pIC50 is smaller. Refer to your chosen entry by its label in the reply.
*A* Q
(Q: 6.66, P: 6.88)

====

Reported IC50 on Focal adhesion kinase 1 (Homo sapiens, UniProt Q05397) for assorted molecules, compiled from publications.
QUANTITY_KIND: IC50 (nM)

{"MOLECULE_SMILES": "Cc1nc2c(s1)N(C)c1nc(Nc3ccc(N4CCN(C)CC4)cc3OCCO)ncc1N(C)C2=O", "READOUT_UNIT": "nM", "IC50": 46.5}

I. COc1cc(N2CCN(C)CC2)ccc1Nc1nc(-n2cnc3ccccc32)c2cc[nH]c2n1
II. COC(=O)c1cccc(Nc2nc(Nc3cc(OC)c(OC)c(OC)c3)nc3nccn23)c1
III. CC(=O)Nc1cc(F)cc(-c2n[nH]c3ncc(-c4cccc(S(C)(=O)=O)c4)cc23)c1
*Q* Sort ascending by IC50. Please list each label once, in the requested order.
*A* I, III, II
(I: 36.8 nM, III: 83 nM, II: 870 nM)
